Test system: clinical strains of S. pneumoniae
measurementProtocol: MIC, microdilution, clinical strains
Assay type: cell-based
conditionInfo: Streptococcus pneumoniae strain 3, Muller Hinton broth-cation adjusted, 0.02% BSA, 0.2% acetic acid
Where a SMILES comes first, the peptide text is derived from it. [ ]: non-standard residue; d: D form.
quantityMeasured: Minimum inhibitory concentration

- CC(C)C[C@@H](NC(=O)[C@H](N)CCCNC(=N)N)C(=O)N[C@H](CCCCN)C(=O)N[C@H](Cc1c[nH]c2ccccc12)C(=O)N[C@H](Cc1ccccc1)C(=O)N[C@H](Cc1c[nH]c2ccccc12)C(=O)N[C@H](CC(C)C)C(=O)N[C@H](Cc1ccccc1)C(=O)N[C@H](CCCNC(=N)N)C(=O)N[C@H](CCCCN)C(=O)N[C@H](CCCNC(=N)N)C(=O)O [Chain307D] (H-[dR][dL][dK][dW][dF][dW][dL][dF][dR][dK][dR]-OH): 4
- CC[C@@H](C)[C@@H](N)C(=O)N[C@H](Cc1c[nH]c2ccccc12)C(=O)N[C@H](CCCCN)C(=O)N[C@H](CCCNC(=N)N)C(=O)N[C@H](Cc1ccccc1)C(=O)N[C@H](CCCNC(=N)N)C(=O)N[C@H](CC(C)C)C(=O)N[C@H](Cc1ccccc1)C(=O)N[C@H](CCCCN)C(=O)N[C@H](CCCCN)C(=O)N[C@H](Cc1c[nH]c2ccccc12)C(=O)O [Chain304D] (H-[dI][dW][dK][dR][dF][dR][dL][dF][dK][dK][dW]-OH): 128
